Cited source for all entries: patent US20130230519A1

Can you tell me pKd for the items I'm about to list?
target of assay: T1, Rat Serum Albumin (rat, UniProt P02770 25-608)
T1 construct: mature; Bought purified serum protein; also called RSA; rat SA
T1 sequence (P02770 25-608): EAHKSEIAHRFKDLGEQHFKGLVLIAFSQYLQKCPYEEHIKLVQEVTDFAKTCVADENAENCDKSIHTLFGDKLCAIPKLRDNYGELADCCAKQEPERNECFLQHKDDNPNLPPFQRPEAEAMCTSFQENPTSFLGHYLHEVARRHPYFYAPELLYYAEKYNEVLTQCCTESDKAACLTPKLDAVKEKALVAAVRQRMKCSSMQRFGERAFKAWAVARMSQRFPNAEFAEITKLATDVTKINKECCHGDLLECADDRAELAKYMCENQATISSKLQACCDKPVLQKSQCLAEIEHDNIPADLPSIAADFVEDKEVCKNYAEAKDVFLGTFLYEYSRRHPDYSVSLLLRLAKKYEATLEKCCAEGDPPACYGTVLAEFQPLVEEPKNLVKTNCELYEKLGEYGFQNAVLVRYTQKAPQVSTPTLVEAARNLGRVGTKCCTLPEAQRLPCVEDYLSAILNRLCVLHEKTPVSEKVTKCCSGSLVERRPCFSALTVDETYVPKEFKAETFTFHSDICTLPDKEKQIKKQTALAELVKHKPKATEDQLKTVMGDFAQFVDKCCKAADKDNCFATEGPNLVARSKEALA
assay protocol: SPR (BIAcore), purified dAb
Conceptually, pKd converts a concentration in mol/L into minus its log10.

Task item: Complete the entry with pKd for DOM7h-14-10 (other, Vk dAb (AlbudAb); tag not included here) VL: DIQMTQSPSSLSASVGDRVTITCRASQWIGSQLSWYQQKPGKAPKLLIMWRSSLQSGVPSRFSGSGSGTDFTLTISSLQPEDFATYYCAQGLRHPKTFGQGTKVEIKR
Reply: 8.03

Task item: # return recorded pKd for input DOM7h-14-56 (other, pDOM5 myc tag not included) VL: DIQMTQSPSSLSASVGDRVTITCRASQWIGSQLSWYQQKPGKAPMLLIMWSSSLQSGVPSRFSGSGSGTDFTLTISSLQPEDFATYYCAQGLRHPKTFGQGTKVEIKW
Reply: 8.47

Task item: Hello, please tell me recorded pKd for this one: DOM7h-14-122 (other) VL: DIQMTQSPSSLSASVGDRVTITCRASQWIGSQLSWYQQKPGKAPKLLIMWRSSLQSGVPSRFSGSGSGTDFTLTISSLQPEDFATYYCAQGLRHPKTYGKGTKVEIKR
Reply: 8.11

Task item: Find the measured pKd of DOM7h-14-76 (other, pDOM5 myc tag not included) VL: DIQMTQSPSSLSASVGDRVTITCRASQWIGSQLSWYQQKPGKAPKLLIMWRSSLQSGVPSRFSGSGSGTDFTLTISSLQPEDFATYYCAQGLKHPKTYGQGTKVEIKW and report it.
Reply: 8.33

Task item: Answer with reported pKd of DOM7h-14-123 (other) VL: DIQMTQSPSSLSASVGDRVTITCRASQWIGSQLSWYQQKPGKAPKLLIMWRSSLQSGVPSRFSGSGSGTDFTLTISSLQPEDFATYYCAQGLRHPKTYGKGTKVENKR
Reply: 8.29

Task item: Dear colleague, please send me the reported pKd for DOM7h-14-116 (other, pDOM5 myc tag not included) VL: DIQMTQSPSSLSASVGDRVTITCRASQWIGSQLSWYQQKPGKAPKLLIMWRSALQSGVPSRFSGSGSGTDFTLTISSLQPEDFATYYCAQGLRYPKTFGQGTKVEIKW when you can.
Reply: 8.07

Task item: Name the recorded pKd of the item DOM7h-14-100 (other, pDOM5 myc tag not included) VL: DIQMTQSPSSLSASVGDRVTITCRASQWIGSQLSWYQQKPGKAPKLLIMWRSSLQSGVPSRFSGSGSGTDFTLTISSLQPEDFATYYCAQGLRHPKTYGQGTKVENKW in your answer.
Reply: 8.43

Task item: Fill in reported pKd for this entry: DOM7h-14-101 (other, pDOM5 myc tag not included) VL: DIQMTQSPSSLSASVGDRVTITCRASQWIGSQLSWYQQKPGKAPKLLIMWRSALQNGVPSRFSGSGSGTDFTLTISSLQPEDFATYYCAQGLRHPKTFGQGTKVEIKW
Reply: 8.24
